Reported log10 of IC50 values are given for each entry in this list.
system: Bel-7402; test: Antiproliferative activity against human Bel7402 cells after 24 hrs by MTT assay; assay type: functional, cell-based; details: Bel-7402, 24 h
Reported metric: log10 of IC50 (log10 of the value in µM)

Smiles: COC(=O)[C@@]1(C)CC[C@]2(C)CC[C@]3(C)C(=CC(=O)[C@@H]4[C@@]5(C)CC[C@H](OC(=O)CCC(=O)OCC#CCOc6no[n+]([O-])c6S(=O)(=O)c6ccccc6)C(C)(C)[C@@H]5CC[C@]43C)[C@@H]2C1
log10 of IC50: 1.13
//
Smiles: CC(=O)O[C@H]1CC[C@]2(C)[C@H]3C(=O)C=C4[C@@H]5C[C@@](C)(C(=O)OCCOCCOc6no[n+]([O-])c6S(=O)(=O)c6ccccc6)CC[C@]5(C)CC[C@@]4(C)[C@]3(C)CC[C@H]2C1(C)C
log10 of IC50: 1.33
//
Smiles: COC(=O)[C@@]1(C)CC[C@]2(C)CC[C@]3(C)C(=CC(=O)[C@@H]4[C@@]5(C)CC[C@H](OC(=O)CCC(=O)OCCCOc6no[n+]([O-])c6S(=O)(=O)c6ccccc6)C(C)(C)[C@@H]5CC[C@]43C)[C@@H]2C1
log10 of IC50: 0.96
//
Smiles: CC1(C)[C@@H](O)CC[C@]2(C)[C@H]3C(=O)C=C4[C@@H]5C[C@@](C)(C(=O)NCC(=O)OCCOCCOc6no[n+]([O-])c6S(=O)(=O)c6ccccc6)CC[C@]5(C)CC[C@@]4(C)[C@]3(C)CC[C@@H]12
log10 of IC50: 0.58
//
Smiles: COc1cccc2c1C(=O)c1c(O)c3c(c(O)c1C2=O)C[C@@](O)(C(=O)CO)C[C@@H]3O[C@H]1C[C@H](N)[C@H](O)[C@H](C)O1
log10 of IC50: -0.05
//
Smiles: CC(=O)O[C@H]1CC[C@]2(C)[C@H]3C(=O)C=C4[C@@H]5C[C@@](C)(C(=O)OCCOc6no[n+]([O-])c6S(=O)(=O)c6ccccc6)CC[C@]5(C)CC[C@@]4(C)[C@]3(C)CC[C@H]2C1(C)C
log10 of IC50: 0.58
//
Smiles: CC1(C)[C@@H](O)CC[C@]2(C)[C@H]3C(=O)C=C4[C@@H]5C[C@@](C)(C(=O)NCC(=O)OCCCOc6no[n+]([O-])c6S(=O)(=O)c6ccccc6)CC[C@]5(C)CC[C@@]4(C)[C@]3(C)CC[C@@H]12
log10 of IC50: -0.37
//
Smiles: COC(=O)[C@@]1(C)CC[C@]2(C)CC[C@]3(C)C(=CC(=O)[C@@H]4[C@@]5(C)CC[C@H](OC(=O)CCC(=O)OCCOCCOc6no[n+]([O-])c6S(=O)(=O)c6ccccc6)C(C)(C)[C@@H]5CC[C@]43C)[C@@H]2C1
log10 of IC50: 1.30
//
Smiles: CC1(C)[C@@H](O)CC[C@]2(C)[C@H]3C(=O)C=C4[C@@H]5C[C@@](C)(C(=O)NCC(=O)OCCOc6no[n+]([O-])c6S(=O)(=O)c6ccccc6)CC[C@]5(C)CC[C@@]4(C)[C@]3(C)CC[C@@H]12
log10 of IC50: 0.14
//
Smiles: CC1(C)[C@@H](O)CC[C@]2(C)[C@H]3C(=O)C=C4[C@@H]5C[C@@](C)(C(=O)NCC(=O)OCC#CCOc6no[n+]([O-])c6S(=O)(=O)c6ccccc6)CC[C@]5(C)CC[C@@]4(C)[C@]3(C)CC[C@@H]12
log10 of IC50: -0.08
//
Smiles: CC(=O)O[C@H]1CC[C@]2(C)[C@H]3C(=O)C=C4[C@@H]5C[C@@](C)(C(=O)NCCOc6no[n+]([O-])c6S(=O)(=O)c6ccccc6)CC[C@]5(C)CC[C@@]4(C)[C@]3(C)CC[C@H]2C1(C)C
log10 of IC50: 1.15
//
Smiles: CC(=O)O[C@H]1CC[C@]2(C)[C@H]3C(=O)C=C4[C@@H]5C[C@@](C)(C(=O)OCCCOc6no[n+]([O-])c6S(=O)(=O)c6ccccc6)CC[C@]5(C)CC[C@@]4(C)[C@]3(C)CC[C@H]2C1(C)C
log10 of IC50: 1.18
//
Smiles: COC(=O)[C@@]1(C)CC[C@]2(C)CC[C@]3(C)C(=CC(=O)[C@@H]4[C@@]5(C)CC[C@H](OC(=O)CCC(=O)NCCOc6no[n+]([O-])c6S(=O)(=O)c6ccccc6)C(C)(C)[C@@H]5CC[C@]43C)[C@@H]2C1
log10 of IC50: 0.47
//
Smiles: CC1(C)[C@@H](O)CC[C@]2(C)[C@H]3C(=O)C=C4[C@@H]5C[C@@](C)(C(=O)NCCOc6no[n+]([O-])c6S(=O)(=O)c6ccccc6)CC[C@]5(C)CC[C@@]4(C)[C@]3(C)CC[C@@H]12
log10 of IC50: 0.39
//
Smiles: CC(=O)O[C@H]1CC[C@]2(C)[C@H]3C(=O)C=C4[C@@H]5C[C@@](C)(C(=O)OCC#CCOc6no[n+]([O-])c6S(=O)(=O)c6ccccc6)CC[C@]5(C)CC[C@@]4(C)[C@]3(C)CC[C@H]2C1(C)C
log10 of IC50: 1.18
//
Smiles: CC1(C)[C@@H](O)CC[C@]2(C)[C@H]3C(=O)C=C4[C@@H]5C[C@@](C)(C(=O)NCC(=O)OCCCCOc6no[n+]([O-])c6S(=O)(=O)c6ccccc6)CC[C@]5(C)CC[C@@]4(C)[C@]3(C)CC[C@@H]12
log10 of IC50: -0.60
//
Smiles: COC(=O)[C@@]1(C)CC[C@]2(C)CC[C@]3(C)C(=CC(=O)[C@@H]4[C@@]5(C)CC[C@H](OC(=O)CCC(=O)OCCCCOc6no[n+]([O-])c6S(=O)(=O)c6ccccc6)C(C)(C)[C@@H]5CC[C@]43C)[C@@H]2C1
log10 of IC50: 0.91
//
Smiles: CC(=O)O[C@H]1CC[C@]2(C)[C@H]3C(=O)C=C4[C@@H]5C[C@@](C)(C(=O)NCC(=O)OCCOCCOc6no[n+]([O-])c6S(=O)(=O)c6ccccc6)CC[C@]5(C)CC[C@@]4(C)[C@]3(C)CC[C@H]2C1(C)C
log10 of IC50: 0.98
//
Smiles: COC(=O)[C@@]1(C)CC[C@]2(C)CC[C@]3(C)C(=CC(=O)[C@@H]4[C@@]5(C)CC[C@H](OC(=O)CCC(=O)OCCOc6no[n+]([O-])c6S(=O)(=O)c6ccccc6)C(C)(C)[C@@H]5CC[C@]43C)[C@@H]2C1
log10 of IC50: 0.89

* * *

assay: Antiproliferative activity against human L02 cells at 10 uM after 24 hrs by MTT assay; type: cell-based; settings: L02 cells
# inhibition at 24 h, 10 µM annotations
Reported metric: inhibition at 24 h, 10 µM

Smiles: CC1(C)[C@@H](O)CC[C@]2(C)[C@H]3C(=O)C=C4[C@@H]5C[C@@](C)(C(=O)NCC(=O)OCCCOc6no[n+]([O-])c6S(=O)(=O)c6ccccc6)CC[C@]5(C)CC[C@@]4(C)[C@]3(C)CC[C@@H]12
Result: < 18%
--
Smiles: CC1(C)[C@@H](O)CC[C@]2(C)[C@H]3C(=O)C=C4[C@@H]5C[C@@](C)(C(=O)NCC(=O)OCC#CCOc6no[n+]([O-])c6S(=O)(=O)c6ccccc6)CC[C@]5(C)CC[C@@]4(C)[C@]3(C)CC[C@@H]12
Result: < 18%
--
Smiles: CC1(C)[C@@H](O)CC[C@]2(C)[C@H]3C(=O)C=C4[C@@H]5C[C@@](C)(C(=O)NCC(=O)OCCCCOc6no[n+]([O-])c6S(=O)(=O)c6ccccc6)CC[C@]5(C)CC[C@@]4(C)[C@]3(C)CC[C@@H]12
Result: < 18%
